System: leukotriene pathway in human whole blood (LTB4)
Test: Human whole blood assay (LTB4 levels after calcium ionophore A23187 stimulation)
Assay type: cell-based
Conditions: Homo sapiens, human whole blood diluted 1:1, A23187 stimulation; Table 6 (additional runs); read-out: Human Whole Blood LTB4 IC50 1:1
QUANTITY_NAME: IC50 (nM)

Worked set:
Nc1cnc(-c2ccc(-c3ccccc3-c3cn[nH]c3)cc2F)cn1 [Example 870] | 86.7
CC(=O)N1CCC(S(=O)(=O)c2ncccc2-c2ccc(-c3cnc(N)cn3)c(F)c2)CC1 [Example 816] | 61

[1] CC(O)CN1CCC(S(=O)(=O)c2ncccc2-c2ccc(-c3cnc(N)cn3)c(F)c2)CC1 (racemic) [Example 905]
[2] Nc1cnc(-c2ccc(-c3ccccc3OCC3CCS(=O)(=O)CC3)cc2F)cn1 [Example 884]
Which value of IC50 is smaller, the one for 1 or the one for 2 ? Lab log: write the label of the selected item as the result. 1
(1: 52.9 nM, 2: 706 nM)

* * *

Molecular target: UniProtKB P20292
Test: FLAP binding assay (HTRF format)
Conditions: Table 6 (additional runs), human FLAP wild type
QUANTITY_NAME: Ki (nM)

CC(CO)NS(=O)(=O)c1ccccc1-c1ccc(-c2cnc3[nH]ccc3n2)c(F)c1 (stereo in doubt) [Example 380] | 1.1
Nc1cnc(-c2ccc(-c3ccccc3S(=O)(=O)N(C3CCOCC3)C3CC3)cc2F)cn1 | 1.4

[1] Nc1cnc(-c2ccc(-c3ccccc3S(=O)(=O)N[C@@H](c3ccccc3)C(F)(F)F)cc2F)cn1
[2] C[C@@H](O)CNS(=O)(=O)Cc1ccccc1-c1ccc(-c2cnc(N)cn2)c(F)c1
Hi there! Just curious which has the higher Ki between 1 and 2 . Respond with the label that goes with your answer. 2

* * *

System: leukotriene pathway in human whole blood (LTB4)
Assay: Human whole blood assay (LTB4 levels after calcium ionophore A23187 stimulation)
Assay type: cell-based
Settings: Homo sapiens, Table 6 (additional runs); human whole blood diluted 1:1, A23187 stimulation; read-out: Human Whole Blood LTB4 IC50 1:1
pIC50: −log10 of the molar value.
QUANTITY_NAME: pIC50

Nc1cnc(-c2ccc(-c3ccccc3S(=O)(=O)N3CCC(CO)CC3)cc2F)cn1 | 7.96
Nc1cnc(-c2ccc(-c3ccccc3S(=O)(=O)N3CCC(O)CC3)cc2F)cn1 | 7.77

[a] N#CC1CCN(S(=O)(=O)c2ccccc2-c2ccc(-c3cnc(N)cn3)c(F)c2)CC1
[b] CCN(CC)S(=O)(=O)c1ccccc1-c1ccc(-c2cnc3[nH]ccc3n2)c(F)c1
Looking only at measured pIC50, which entry is lower, a or b ? When you have decided, please share the label of that item. a

* * *

Target: human FLAP (Homo sapiens (Human), UniProt P20292)
Sequence (P20292 whole entry): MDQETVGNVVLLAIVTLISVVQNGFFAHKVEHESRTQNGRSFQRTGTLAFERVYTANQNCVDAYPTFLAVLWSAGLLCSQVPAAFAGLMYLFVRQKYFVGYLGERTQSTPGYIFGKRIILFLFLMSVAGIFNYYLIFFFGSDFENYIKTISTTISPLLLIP
Test: FLAP binding assay (HTRF format)
Details: human FLAP wild type, Table 6 (additional runs)
QUANTITY_NAME: Ki (nM)

Consider the worked cases shown below.
Nc1ncc(-c2ncc(-c3ccccc3S(=O)(=O)C3CC3)cc2F)cn1 | 276
Nc1cnc(-c2ccc(-c3ccccc3-c3ccnc(N)n3)cc2F)cn1 | 21.5
Nc1cnc(-c2ccc(-c3ccccc3Oc3cc(N)ncn3)cc2F)cn1 | 1.5
CS(=O)(=O)N1CCC(S(=O)(=O)c2ncccc2-c2ccc(-c3cnc(N)cn3)c(F)c2)CC1 | 26.6
CC(C)(C)NS(=O)(=O)c1ccccc1-c1ccc(-c2cnc3c(c2)CCN3)c(F)c1 | 0.8

[a] Nc1cnc(Oc2ccccc2-c2ccc(-c3cnc(N)cn3)c(F)c2)nc1
[b] CC(C)(C)NS(=O)(=O)c1ccccc1-c1ccc(-c2cnc(N)c(Cl)n2)c(F)c1
Smaller Ki value? Options are a and b Label of pick, please. b
(b: 0.8 nM, a: 9.8 nM)

* * *

Molecular target: human FLAP (Homo sapiens (Human), UniProt P20292)
Assay: FLAP binding assay (HTRF format)
Settings: Table 6 (additional runs), human FLAP wild type
QUANTITY_NAME: Ki (nM)

Completed entries (count: 3):
C[C@H](CO)NS(=O)(=O)c1ccccc1-c1ccc(-c2cnc3[nH]ccc3c2)c(F)c1 | 0.6
C[C@@H](CO)NS(=O)(=O)c1ccccc1-c1ccc(-c2cnc3c(c2)OCCN3)c(F)c1 | 1.7
N#CC1CCN(S(=O)(=O)c2ccccc2-c2ccc(-c3cnc(N)cn3)c(F)c2)CC1 | 1.9

[P] Nc1cnc(-c2ccc(-c3ccccc3S(=O)(=O)N3CCC(c4c[nH]cn4)CC3)cc2F)cn1
[Q] Nc1cnc(-c2ccc(-c3ccccc3S(=O)(=O)N(CCO)C3CCCCC3)cc2F)cn1
Identify the entry with the larger Ki. Options: P and Q API: response body contains the label of the selected item. P
(P: 0.8 nM, Q: 0.5 nM)

* * *

System: leukotriene pathway in human whole blood (LTB4)
Experiment: Human whole blood assay (LTB4 levels after calcium ionophore A23187 stimulation)
Assay type: cell-based
Settings: Homo sapiens, human whole blood diluted 1:1, A23187 stimulation; Table 6 (additional runs); read-out: Human Whole Blood LTB4 IC50 1:1
Method: The ability of the compounds of the present invention to treat a FLAP-mediated disease and/or disorder, or associated symptoms or complications thereof, was determined using the following procedures. Binding assay data represent the average value obtained from two different assay plates, with samples run in duplicate on each plate. Human whole blood assay data represent a single replicate on an assay plate using whole blood from at least one healthy donor. […]
pIC50: −log10 of the molar value.
QUANTITY_NAME: pIC50

Example entries begin here.
N#CCn1cc(-c2ccccc2-c2ccc(-c3cnc(N)nc3)c(F)c2)cn1 | 6.07
Nc1cnc(-c2ccc(-c3ccccc3Oc3cc(N)ncn3)cc2F)cn1 | 7.81
NC(=O)c1ccc(Oc2ccccc2-c2ccc(-c3cnc(N)nc3)c(F)c2)cc1 | 7.21

[I] Nc1ccc(-c2ccccc2-c2ccc(-c3cnc(N)cn3)c(F)c2)cn1
[II] C[C@H](O)CNS(=O)(=O)c1ccccc1-c1cnc(-c2cnc(N)nc2)c(F)c1
[III] N#CCn1cc(-c2ccccc2-c2ccc(-c3cnc(N)cn3)c(F)c2)cn1
[IV] CC(C)S(=O)(=O)c1nc(C(F)(F)F)ccc1-c1ccc(-c2cnc(N)cn2)c(F)c1
[V] Nc1ncc(-c2ccc(-c3ccccc3Oc3ccc(C(=O)O)cc3)cc2F)cn1
Sort entries by pIC50 from minimum to maximum value. Answer by listing the labels in the order asked for. III, V, II, I, IV
(III: 6.43, V: 6.63, II: 6.97, I: 7.35, IV: 8.80)

* * *

Target: human FLAP (Homo sapiens (Human), UniProt P20292)
Assay: FLAP binding assay (HTRF format)
Conditions: human FLAP wild type, Table 6 (additional runs)
Counter-ions that a name gives are not always drawn.
QUANTITY_NAME: Ki (nM)

A selection of reference data follows.
C[C@H](O)CNS(=O)(=O)c1ccccc1-c1cnc(-c2cnc(N)nc2)c(F)c1 [Example 879] | 168
Nc1ncc(-c2ccc(-c3ccc(C(F)(F)F)nc3S(=O)(=O)C3CCOCC3)cc2F)cn1 [Example 907] | 6

[1] Nc1ncc(-c2ccc(-c3cccnc3S(=O)(=O)C3CCOCC3)cc2F)cn1 [Example 831, formic acid salt]
[2] Nc1cnc(-c2ccc(-c3ccccc3Oc3ncccn3)cc2F)cn1 [Example 526]
Between 1 and 2 , which one shows the smaller Ki number? Please reply using the label of the selected record. 2

* * *

Target: human FLAP (Homo sapiens (Human))
Experiment: FLAP binding assay (HTRF format)
Details: human FLAP wild type, Table 6 (additional runs)
Counter-ions that a name gives are not always drawn.
QUANTITY_NAME: Ki

Previously resolved entries follow.
CC(C)(C)NS(=O)(=O)c1ccccc1-c1ccc(-c2ccc3[nH]nc(N)c3c2)c(F)c1 | ~2500 nM
Nc1ncc(-c2ccc(-c3ccccc3Oc3cccc(C(F)(F)F)n3)cc2F)cn1 | 32.7 nM
CC(C)(C)NS(=O)(=O)c1ccccc1-c1ccc(-c2cnc(N)nc2)c(F)c1F [Example 466, trifluoroacetic acid salt] | ~254 nM

Notebook: CC(=O)c1ccccc1-c1ccc(-c2cnc(N)cn2)c(F)c1 , Ki read as ~354 nM

* * *

Target: human FLAP (Homo sapiens (Human))
Assay: FLAP binding assay (HTRF format)
Settings: Table 6 (additional runs), human FLAP wild type
pKi: −log10 of the molar value.
QUANTITY_NAME: pKi

Nc1cnc(-c2ccc(-c3ccccc3S(=O)(=O)N[C@@H]3c4ccccc4C[C@H]3O)cc2F)cn1 [Example 159] | 9.10

[I] CC(C)[C@@H](CO)NS(=O)(=O)c1ccccc1-c1ccc(-c2cnc(N)cn2)c(F)c1 [Example 148]
[II] O=S1(=O)CCN(S(=O)(=O)c2ccccc2-c2ccc(-c3cnc4[nH]ccc4n3)c(F)c2)CC1 [Example 382]
Looking at I and II , which one comes out lower in pKi terms? Response format: the label of the selected entry. I
(I: 8.60, II: 9.30)

* * *

Target: UniProt P20292
Assay: FLAP binding assay (HTRF format)
Details: human FLAP wild type, Table 6 (additional runs)
Method: The ability of the compounds of the present invention to treat a FLAP-mediated disease and/or disorder, or associated symptoms or complications thereof, was determined using the following procedures. Binding assay data represent the average value obtained from two different assay plates, with samples run in duplicate on each plate. Human whole blood assay data represent a single replicate on an assay plate using whole blood from at least one healthy donor. Data are expressed as a HTRF ratio.
QUANTITY_NAME: Ki (nM)

[I] Nc1cc(-c2ccc(-c3ccccc3S(=O)(=O)NC3(CO)CCCC3)cc2F)cc2cc[nH]c12 [Example 456]
[II] CC(C)(C)NS(=O)(=O)c1ccccc1-c1ccc(-c2cnc(N)c(F)c2)c(F)c1 [Example 430]
[III] Nc1cnc(-c2ccc(-c3ccccc3O)cc2F)cn1 [Example 476]
[IV] N#Cc1ncc(-c2ccccc2-c2ccc(-c3cnc(N)cn3)c(F)c2)cn1 [Example 849]
Could you arrange the 4 molecules above by Ki, starting with the largest number? // format: requested-order list of labels IV, III, II, I
